Target: recombinant human ALK5 (TGF-βR1) protein (Homo sapiens, UniProt P36897)
Construct: purchased Life Technologies PR9075A
Sequence (P36897 34-503): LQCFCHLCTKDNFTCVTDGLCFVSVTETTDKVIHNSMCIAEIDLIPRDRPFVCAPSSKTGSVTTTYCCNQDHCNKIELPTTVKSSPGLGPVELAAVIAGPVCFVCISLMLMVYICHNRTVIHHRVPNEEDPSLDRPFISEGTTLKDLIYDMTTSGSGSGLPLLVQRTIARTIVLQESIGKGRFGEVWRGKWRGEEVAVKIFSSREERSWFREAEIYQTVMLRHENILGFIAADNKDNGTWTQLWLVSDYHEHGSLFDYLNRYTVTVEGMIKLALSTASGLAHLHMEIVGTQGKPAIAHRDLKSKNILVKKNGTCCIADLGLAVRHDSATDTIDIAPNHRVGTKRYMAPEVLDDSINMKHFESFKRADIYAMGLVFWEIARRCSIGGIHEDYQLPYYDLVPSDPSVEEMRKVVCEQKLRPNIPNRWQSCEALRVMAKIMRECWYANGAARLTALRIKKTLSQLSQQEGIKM
Assay: Biochemical ALK5 (TGF-βR1) assay to measure pKi (LANCE Ultra ULight kinase assay)
Settings: apparent pKi from pIC50 by Cheng-Prusoff, read-out: ALK5 pKi (converted)
Ki overview

Recorded results for 8 compounds are shown here.
Cc1nc(-c2n[nH]cc2-c2ccc3ncc(-c4cc5n(n4)CCN5)cc3n2)ccc1F | < 0.0316 nM
Cc1cccc(-c2n[nH]cc2-c2ccc3ncc(-c4nnc5n4CCN5)cc3n2)n1 | 0.0398 to 0.316 nM
Cc1cccc(-c2[nH]cnc2-c2ccc3ncc(N4CCC(C(=O)OC5CNC5)CC4)cc3c2)n1 | 0.0398 to 0.316 nM
Cc1cccc(-c2[nH]cnc2-c2ccc3ncc(C4=C[C@H](C)N[C@H](C)C4)cc3c2)n1 | 0.0398 to 0.316 nM
Cc1cccc(-c2[nH]cnc2-c2ccc3ncc(-c4nc(C5=CCNC5)cs4)cc3c2)n1 | 0.0398 to 0.316 nM
Cc1cccc(-c2[nH]cnc2-c2ccc3ncc(NCCC4CCCNC4)cc3c2)n1 (stereo not drawn) | 0.0398 to 0.316 nM
Cc1cccc(-c2[nH]cnc2-c2ccc3ncc(-c4cnc(C(=O)OC5CNC5)nc4)cc3c2)n1 | 0.398 to 3.16 nM
Cc1cccc(-c2n[nH]cc2-c2ccc3ncc(-c4cnn(C5COC5)c4)cc3n2)n1 | < 0.0316 nM

// below: Ki requested for another compound
Lookup result for Cc1cccc(-c2[nH]cnc2-c2ccc3ncc(-c4ccc(C(=O)OCC5CNC5)cn4)cc3c2)n1 ; measured Ki: < 0.0316 nM

* * *

Target: recombinant human ALK5 (TGF-βR1) protein (Homo sapiens)
Construct: purchased Life Technologies PR9075A
Test: Biochemical ALK5 (TGF-βR1) assay to measure pKi (LANCE Ultra ULight kinase assay)
Conditions: apparent pKi from pIC50 by Cheng-Prusoff, read-out: ALK5 pKi (converted)
Catalogue of Ki readings, one per entry.

Cc1cccc(-c2[nH]cnc2-c2ccc3ncc(-c4nccc(C(=O)O)n4)cc3c2)n1 [Compound 1109] | 0.398 to 3.16 nM
Cc1cccc(-c2nnn(Cc3ccccc3)c2-c2ccc3ncc(N4CCC(N(C)C)C4)cc3c2)n1 (stereo not drawn) [Compound 191] | 0.0398 to 0.316 nM
Cc1nc(-c2n[nH]cc2-c2ccc3ncc(-c4cnn5c4NCC5)cc3n2)ccc1F [Compound 534] | < 0.0316 nM
Cc1cccc(-c2n[nH]cc2-c2ccc3ncc(-c4nc(CO)co4)cc3n2)n1 [Compound 32] | < 0.0316 nM
Cc1cccc(-c2n[nH]cc2-c2ccc3ncc(N4CCCNCC4)cc3c2)n1 [Compound 580] | 0.0398 to 0.316 nM

Lookup result for Cc1cccc(-c2n[nH]cc2-c2ccc3ncc(N4CCC(N5CCN(C)CC5)CC4)cc3n2)n1 [Compound 205] ; measured Ki: 0.0398 to 0.316 nM

response.value for Cc1cccc(-c2[nH]cnc2-c2ccc3ncc(-c4ccc(C(=O)OC5CCNCC5)cc4)cc3c2)n1 [Compound 310] (field: Ki) = 0.0398 to 0.316 nM

response.value for Cc1cccc(-c2[nH]cnc2-c2ccc3ncc(-c4nc(C(=O)OCCN5CCC[C@H](N)C5)cs4)cc3c2)n1 [Compound 1172] (field: Ki) = < 0.0316 nM

Notebook: Cc1nc(-c2[nH]cnc2-c2ccc3ncc(NCCN4CCCC4)cc3n2)ccc1F [Compound 568] , Ki read as 0.0398 to 0.316 nM

* * *

Quick reference: Ki of the listed items.
Molecular target: recombinant human ALK5 (TGF-βR1) protein (Homo sapiens)
Construct: purchased Life Technologies PR9075A
Sequence (P36897 34-503): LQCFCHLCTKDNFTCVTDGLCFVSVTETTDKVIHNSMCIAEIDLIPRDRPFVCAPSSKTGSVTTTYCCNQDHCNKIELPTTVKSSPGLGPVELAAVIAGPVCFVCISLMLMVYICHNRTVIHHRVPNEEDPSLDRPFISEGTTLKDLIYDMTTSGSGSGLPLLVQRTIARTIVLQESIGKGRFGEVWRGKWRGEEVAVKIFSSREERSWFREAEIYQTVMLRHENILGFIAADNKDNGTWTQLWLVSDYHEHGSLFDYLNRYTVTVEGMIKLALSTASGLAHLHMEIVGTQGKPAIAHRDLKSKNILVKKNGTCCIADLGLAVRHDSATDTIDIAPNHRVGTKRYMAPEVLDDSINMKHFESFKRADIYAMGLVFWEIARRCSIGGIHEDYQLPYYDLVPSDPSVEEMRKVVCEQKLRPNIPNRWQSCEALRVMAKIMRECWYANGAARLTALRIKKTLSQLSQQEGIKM
Experiment: Biochemical ALK5 (TGF-βR1) assay to measure pKi (LANCE Ultra ULight kinase assay)
Conditions: apparent pKi from pIC50 by Cheng-Prusoff, read-out: ALK5 pKi (converted)

Before answering, review these 3 worked examples.
Cc1cccc(-c2[nH]cnc2-c2ccc3ncc(C4=CC[C@H](NC(=O)C5CCNCC5)CC4)cc3c2)n1 | 0.0398 to 0.316 nM
COC(=O)[C@H]1CN(c2cnc3ccc(-c4c[nH]nc4-c4cccc(C)n4)nc3c2)CCN1 | 0.0398 to 0.316 nM
Cc1cccc(-c2[nH]cnc2-c2ccc3ncc(N4CCN[C@@H](C(=O)O)C4)cc3c2)n1 | 0.0398 to 0.316 nM

# evaluate next
Ki of Cc1cccc(-c2[nH]cnc2-c2ccc3ncc(-c4ccccn4)cc3c2)n1 , assay on recombinant human ALK5 (TGF-βR1) protein (Homo sapiens), is 0.0398 to 0.316 nM

* * *

The entries below come with measured Ki values attached.
Molecular target: recombinant human ALK5 (TGF-βR1) protein (Homo sapiens)
Construct: purchased Life Technologies PR9075A
Test: Biochemical ALK5 (TGF-βR1) assay to measure pKi (LANCE Ultra ULight kinase assay)
Conditions: apparent pKi from pIC50 by Cheng-Prusoff, read-out: ALK5 pKi (converted)

Observe how each entry below is paired with its result.
Cc1cccc(-c2nnn(Cc3ccccc3)c2-c2ccc3ncc(-c4cn[nH]c4)cc3c2)n1 | 0.0398 to 0.316 nM
Cc1cccc(-c2[nH]cnc2-c2ccc3ncc(-c4ccnc(C(=O)O[C@H]5CCNC5)c4)cc3c2)n1 | 0.0398 to 0.316 nM
Cc1cccc(-c2n[nH]cc2-c2ccc3nccc(CCC(=O)N4CCOCC4)c3n2)n1 | 0.398 to 3.16 nM
Cc1cccc(-c2[nH]cnc2-c2ccc3ncc(NC4CC5(CNC5)C4)cc3c2)n1 | 0.0398 to 0.316 nM
Cc1cccc(-c2[nH]ncc2-c2ccc3nccc(C(=O)OC[C@@H]4CCCCN4)c3c2)n1 | 0.398 to 3.16 nM
Cc1cccc(-c2n[nH]cc2-c2ccc3ncc(NC(=O)CCN4CCN(C(C)C)CC4)cc3n2)n1 | 0.0398 to 0.316 nM
Cc1cccc(-c2[nH]cnc2-c2ccc3ncc(C(=O)O[C@H]4CC[C@@H](N)CC4)cc3c2)n1 | 0.398 to 3.16 nM
Cc1cccc(-c2n[nH]cc2-c2ccc3ncc(N(C)CCCN4CCOCC4)cc3n2)n1 | 0.0398 to 0.316 nM
Cc1cccc(-c2n[nH]cc2-c2ccc3nc(C4CCCN4)c(-c4cn[nH]c4)cc3c2)n1 (centres unmarked) | 3.98 to 31.6 nM
Cc1cccc(-c2[nH]cnc2-c2ccc3ncc(-c4nc(C(=O)O[C@@H]5CCNC5)cs4)cc3c2)n1 | 0.0398 to 0.316 nM

# compound Cc1cccc(-c2[nH]cnc2-c2ccc3ncc(-c4cc(C(=O)OCCN5CCNCC5)ccn4)cc3c2)n1 ; its Ki = 0.0398 to 0.316 nM

Reported Ki of Cc1nc(-c2n[nH]cc2-c2ccc3ncc(N4CCN(CCO)CC4)cc3n2)ccc1F : < 0.0316 nM

# Ki of CNCCn1cc(-c2cnc3ccc(-c4c(-c5cccc(C)n5)nn5cc(Cl)ccc45)cc3c2)cn1 = 0.0398 to 0.316 nM

Consider COC(=O)C1CN(CCNc2cnc3ccc(-c4c[nH]nc4-c4cccc(C)n4)nc3c2)CCN1 (centres unmarked) . Its measured Ki is 0.0398 to 0.316 nM

Consider Cc1cccc(-c2n[nH]cc2-c2ccc3ncc(N4CCN5CCCC5C4)cc3n2)n1 (centres unmarked) . Its measured Ki is < 0.0316 nM

Data point: Cc1cccc(-c2[nH]cnc2-c2ccc3ncc(Nc4ccc(N5CCNCC5)cn4)cc3c2)n1 ; Ki = 0.0398 to 0.316 nM

Per the record, Cc1nc(-c2n[nH]cc2-c2ccc3ncc(-c4cnn5c4CNCC5)cc3n2)ccc1F has Ki of 0.0398 to 0.316 nM

Entry under test: Cc1cccc(-c2[nH]cnc2-c2ccc3ncc(C(=O)OCCN4CCCC4)cc3c2)n1 . Its Ki was 0.398 to 3.16 nM

Measured Ki of Cc1cccc(-c2[nH]cnc2-c2ccc3ncc(-c4csc(C(=O)OC[C@H]5CCCNC5)c4)cc3c2)n1 : < 0.0316 nM

Lookup result for Cc1cccc(-c2n[nH]cc2-c2ccc3ncc(N4CCCN(C)C(C)C4)cc3n2)n1 (racemic) ; measured Ki: 0.0398 to 0.316 nM

In plain terms, Cc1cccc(-c2[nH]cnc2-c2ccc3ncc(NCCNC4CNC4)cc3c2)n1 has a documented Ki of 0.0398 to 0.316 nM

# compound Cc1cccc(-c2[nH]cnc2-c2ccc3nccc(C(=O)O)c3c2)n1 ; its Ki = 0.398 to 3.16 nM

Reported Ki of Cc1cccc(-c2n[nH]cc2-c2ccc3ncc(-c4nc(C(N)=O)co4)cc3n2)n1 : 0.0398 to 0.316 nM

Measured Ki, Cc1cccc(-c2[nH]cnc2-c2ccc3ncc(-c4ccc(C(=O)OCCNC5CNC5)cn4)cc3c2)n1 : 0.0398 to 0.316 nM

// Ki lookup, compound = Cc1cccc(-c2[nH]cnc2-c2ccc3ncc(-c4cccc(NC5CCNCC5)n4)cc3c2)n1 , result: 0.0398 to 0.316 nM

The recorded Ki for Cc1cccc(-c2[nH]cnc2-c2ccc3ncc(C4=CCC(C(=O)O[C@@H]5CCNC5)CC4)cc3c2)n1 (some centres unmarked) is 0.0398 to 0.316 nM

src = patent US11590116B2
